- Test system: L6-myotubes
- procedure-text: Glucose uptake (3H-2-deoxy-glucose) in differentiated L6-myotubes
- Assay type: cell-based
- condition-parameters: agonist final concentration 1×10^−5, 50 nM 3H-2-deoxy-glucose, relative to isoproterenol, read-out: Biological example 1 (glucose uptake, activity compared to that of isoproterenol)
Structures can show the parent of a compound that is named as a salt.
measurement-name: Emax

stdin: Suppose we examine the molecule CC(C)(C)NC[C@H](O)c1ncccc1Cl [Example 20, dihydrochloride] ; what Emax value has been reported?
stdout: 25 to 50%

Record Emax for all entries; do not skip any.
1. CCCCNC[C@H](O)c1cnc(NC(=O)C(C)C)s1 [Example 8]
2. CCCCNC[C@H](O)c1cnc(NC(=O)C(C)C)nc1 [Example 10, hydrochloride]
3. CCCCNC[C@H](O)c1ccnc(N)n1 [Example 5]
4. CC(C)(C)NC[C@H](O)c1cncc(Cl)c1 [Example 19]

stdout:
1. 25 to 50%
2. 50 to 75%
3. 25 to 50%
4. > 75%

stdin: Suppose we examine the molecule CCCCNCC(O)c1cc[nH]c(=O)c1 (stereo not drawn) [Example 4, acetate] ; what Emax value has been reported?
stdout: 50 to 75%
